target: T1, human PCSK9 (proprotein convertase subtilisin kexin type 9) (human, UniProt Q8NBP7 31-692); experiment: BLI, biotinylated hPCSK9 on sensor tips
T1 construct: Directly immobilized (SPR ProteOn), biotinylated (BLI), or in solution, depending on the assay; also called hPCSK9
T1 sequence (Q8NBP7 31-692 limits assumed): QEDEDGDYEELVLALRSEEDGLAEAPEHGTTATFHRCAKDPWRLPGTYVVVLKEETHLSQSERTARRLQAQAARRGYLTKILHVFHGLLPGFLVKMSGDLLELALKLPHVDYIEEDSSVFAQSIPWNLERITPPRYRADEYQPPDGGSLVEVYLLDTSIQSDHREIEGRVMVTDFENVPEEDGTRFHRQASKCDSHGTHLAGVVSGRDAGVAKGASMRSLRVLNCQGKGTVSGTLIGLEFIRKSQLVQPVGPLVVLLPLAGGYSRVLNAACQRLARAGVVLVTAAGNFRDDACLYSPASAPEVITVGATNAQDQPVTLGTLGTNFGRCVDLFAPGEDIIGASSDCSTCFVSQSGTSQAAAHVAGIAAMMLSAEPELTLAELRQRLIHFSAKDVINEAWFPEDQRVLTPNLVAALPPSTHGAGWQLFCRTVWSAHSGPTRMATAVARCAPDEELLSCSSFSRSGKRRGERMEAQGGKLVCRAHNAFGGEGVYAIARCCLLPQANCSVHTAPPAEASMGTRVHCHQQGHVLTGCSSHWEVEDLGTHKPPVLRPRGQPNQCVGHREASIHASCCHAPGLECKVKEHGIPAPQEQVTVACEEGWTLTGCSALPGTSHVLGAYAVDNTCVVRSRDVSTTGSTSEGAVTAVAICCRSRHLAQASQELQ
Listing: koff of selected binders
Record the value in s⁻¹, omitting the unit from your answer.

Example entries begin here.
ATI001117 (designed binder, PEGylated on the cysteine of the C-terminal tail (marked by asterisk in Table 5 as having been pegylated; PEG not specified), Anti-PCSK9 Adnectin, cysteine mutant of 2011H05, His6-tagged; also called 2011H05 Cys mut) MGVSDVPRDLEVVAATPTSLLISWVPSSHAYGYYRITYGETGGNSPVQEFTVPVGVGTATISGLKPGVDYTITVYAVEYAFEGAGYYHRPISINYRTGSGCHHHHHH
5.07e-05
2381B08 (designed binder, Anti-PCSK9 Adnectin, His6-tagged) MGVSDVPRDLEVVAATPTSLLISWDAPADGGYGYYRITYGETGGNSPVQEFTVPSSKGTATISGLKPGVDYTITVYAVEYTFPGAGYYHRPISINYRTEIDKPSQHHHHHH
0.00094
ATI001114 (designed binder, PEGylated on the cysteine of the C-terminal GSGC tail (two-branched 40 kDa PEG), PEGylated version of the 2013E01 Adnectin, His6-tagged; also called ATI1114) MGVSDVPRDLEVVAATPTSLLISWVPPSDDYGYYRITYGETGGNSPVQEFTVPIGKGTATISGLKPGVDYTITVYAVEFPWPHAGYYHRPISINYRTGSGCHHHHHH
0.000395

--- query ---
QUERY: Note down koff recorded for ATI001168 (designed binder) MGVSDVPRDLEVVAATPTSLLISWEPPSHAYGYYRITYGETGGNSPVQEFTVPIGKGTATISGLKPGVDYTITVYAVEYPWKGSGYYHRPISINYRTEIDKPSQHHHHHH
RESULT: 0.000333
